Experiment: NCI Yeast Anticancer Drug Screen. Data for the sgs1 mgt1 strain (AID 161);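 note: 0% = growth of cultures given vehicle only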
Details: S. cerevisiae sgs1 mgt1 strain, at 50.0 µM, stronger effect = higher value
Experimental: Growth inhibition of yeast strains with defined genetic alterations is measured as a screen for potential anti-cancer activity. Selected strains with alterations in DNA damage repair or cell cycle control were exposed to compounds and growth inhibition was measured relative to vehicle treated controls. The strain used in this assay is sgs1 mgt1
Compounds without any hit were thinned out: in the full panel of roughly 79,000, 15% have a hit.
reported_endpoint: growth inhibition (%)
Give bare numbers, in %.

>>> df
                                   compound  reported_endpoint  reading
0        COC(=O)c1c2c(cc3nc4ccccc4nc13)OCO2  growth inhibition     12.8
1  Cc1ccc(-c2c(C#N)c(-c3ccccc3)c(C#N)c(=O)n2NS(=O)(=O)c2ccc(C)cc2)cc1  growth inhibition     17.1
2    CCOP(=O)(OCC)/C(C#N)=C/c1ccc(N(C)C)cc1  growth inhibition     12.4

Provide growth inhibition for all items below, preserving their order.
1. O=C1NC(c2cccc3c2OCO3)N=C2Oc3ccccc3C=C12 (stereo unspecified)
2. CC1CC(C)OC(C)(Cc2ccccc2)O1 (stereo unspecified)

Reply text:
1: 9.45; 2: 25.6

Provide growth inhibition for all items below, preserving their order.
1. COC(=O)c1nnn(-c2ccc(Cl)cc2Cl)c1N
2. CCN=NNc1ccc(C#N)cc1

Reply text:
1: -14.6; 2: -0.25

---

Assay: NCI Yeast Anticancer Drug Screen. Data for the cln2 rad14 strain (AID 165);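 note: 0% = growth equal to vehicle treated cultures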
Details: S. cerevisiae cln2 rad14 strain, at 50.0 µM, stronger effect = higher value
This is part of a sample that, as a whole, favours compounds with a hit. Of some 79,000 tested, about 15% had one in any assay.
Returns one of Met or Not met; Met when growth inhibition is >= 20%.

Inquiry: Quick check, growth inhibition >= 20%? COc1ccc(NC(=O)Nc2ccc(NC(C)=O)cc2)c(OC)c1
Reply text: Not met

Inquiry: Same question for CC(=O)N(C1CCCCC1)C1CCCCC1 please.
Reply text: Not met

Inquiry: Same question for c1cn(C23C4C5C6C4C2C6C53)cn1 (stereo unspecified) please.
Reply text: Not met

Inquiry: Same question for O=C1NC(Nc2ccccc2)=NC(C(F)(F)F)(C(F)(F)F)N1 please.
Reply text: Met

Inquiry: Same question for Nc1nc(N)c2ncn(-c3ccc(Cl)cc3)c2n1 please.
Reply text: Not met

Inquiry: Same question for CS(=O)(=O)CC1=Nc2nnc(CCCCCCCc3nnc4n3C(=O)C(CS(C)(=O)=O)=N4)n2C1=O please.
Reply text: Not met

---

Test: NCI Yeast Anticancer Drug Screen. Data for the mlh1 rad18 strain (AID 175)
Settings: S. cerevisiae mlh1 rad18 strain growth inhibition; at 50.0 µM; stronger effect = higher value
Experimental: Growth inhibition of yeast strains with defined genetic alterations is measured as a screen for potential anti-cancer activity. Selected strains with alterations in DNA damage repair or cell cycle control were exposed to compounds and growth inhibition was measured relative to vehicle treated controls. The strain used in this assay is mlh1 rad18
This is part of a sample that, as a whole, favours compounds with a hit. Of some 79,000 tested, about 15% had one in any assay.
Kindly state growth inhibition for each of the entries shown.
Give bare numbers, in %.

Please review the following examples before continuing.
In [3]: df
Out[3]:
                                   compound  u  reading
0  CS(=O)(=O)CC1=Nc2nnc(CCCCCCCc3nnc4n3C(=O)C(CS(C)(=O)=O)=N4)n2C1=O  %    -7.95
1  CCCC(=O)Nc1cn(COC)c(C(=O)N2C[C@H]3C[C@@]34C2=CC(=O)c2[nH]cc(C)c24)n1  %     58.8
2  C=CCn1c(=S)sc2c(C(=O)OCC)c3c(C)cc(C)cn3c2c1=O  %    -37.9
3  Cn1c(=N)n(CC(=O)NC23CC4CC(CC(C4)C2)C3)c2ccccc21  %    -11.6
4  COCC1(c2ccccc2)NC(=O)N(C)C1=O (stereo not given)  %       -2

Provide growth inhibition for all items below, preserving their order.
1. O=C(c1ccccc1)c1ccccc1C(=O)c1ccccc1
2. O=C(Nc1ccc(Cl)c(Cl)c1)C1C(=O)N(c2ccc(Cl)c(Cl)c2)C(=O)/C1=N\O (stereo not given)

Reply text:
[52, 22.8]

---

Test: NCI Yeast Anticancer Drug Screen. Data for the mec2-1 strain (AID 157)
Conditions: S. cerevisiae mec2-1 strain, at 50.0 µM, stronger effect = higher value
About 79,000 compounds went through this panel and 15% of them were active in at least one assay; those are over-represented in the sample as a whole.
reported_endpoint: growth inhibition (%)
Give bare numbers, in %.

Please review the following examples before continuing.
>>> df
                                   compound  reported_endpoint  u  reading
0                              CN(CCCN)CCCN  growth inhibition  %    -11.2
1  CCO/C([O-])=C(\C=N\S(=O)(=O)c1ccc(C)cc1)[n+]1ccccc1  growth inhibition  %     13.8

Kindly consider the entry below.
Inquiry: Entry CC(=O)OC1CCC(OC(C)=O)[C@H]2[C@@H]1[C@@H]1S[C@H]2c2ccccc21 (stereo partly drawn) has what growth inhibition?
Reply text: -1.55

---

Test: NCI Yeast Anticancer Drug Screen. Data for the cln2 rad14 strain (AID 165);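 note: 0% = growth equal to vehicle treated cultures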
Conditions: S. cerevisiae cln2 rad14 strain, at 50.0 µM, stronger effect = higher value
Compounds without any hit were thinned out: in the full panel of roughly 79,000, 15% have a hit.
Returns one of met or not met; met when growth inhibition is >= -20%.

Here are 5 compounds together with their reported answers.
>>> print(df.to_string())
                                   compound  assigned_class
0  COc1ccc(C(=O)/C=c2/c(CC(=O)c3ccc(OC)cc3)nc3nnc(N)n23)cc1             met
1    O=C1C(=O)N(c2ccccc2Cl)C(=O)N1Cc1ccccc1             met
2  CC(=O)NC1C(OCc2ccccc2)OC(CO)C(O)C1OCc1ccccc1 (configuration not stated)         not met
3                   CC(=O)NCCOC(=O)c1ccccc1             met
4  N#CCCC(C(=O)O)C(=O)CN1C(=O)c2ccccc2C1=O (configuration not stated)             met

Inquiry: Quick check, growth inhibition >= -20%? NC(CCC(=O)Nc1cccc2ccccc12)C(=O)O (configuration not stated)
Reply text: met

Inquiry: Same question for CC1CC(C)SC(C)S1 (configuration not stated) please.
Reply text: not met

---

Kindly state growth inhibition for each of the entries shown.
Assay: NCI Yeast Anticancer Drug Screen. Data for the rad50 strain (AID 155);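 note: 0% = growth of vehicle-only cultures of the same strain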
Conditions: S. cerevisiae rad50 strain growth inhibition; at 50.0 µM; stronger effect = higher value
This is part of a sample that, as a whole, favours compounds with a hit. Of some 79,000 tested, about 15% had one in any assay. Calls of active or inactive are those of the source. Cut-off read from the data, not from the text of the source: active = growth inhibition above about 70%; inactive = the rest.

Please review the following examples before continuing.
molecule	growth inhibition
CC(O)CNC(=O)C(C)Oc1ccc(OCC2CCCCC2)cc1 (stereo not drawn)	-2.8% (inactive)
CC/C(C)=N\NC(N)=O	6.85% (inactive)
O=c1c(SCc2ccccc2Cl)c(SCc2ccccc2Cl)cnn1-c1ccccc1	10.7% (inactive)

Provide growth inhibition for all items below, preserving their order.
1. c1ccc(C2SCCN2c2ccccc2)cc1 (stereo not drawn)
2. C=C1c2nc3ccccc3n2C=C(c2ccc(Cl)cc2)N1c1ccccc1
3. O=[N+]([O-])c1ccc(N/N=C\C2CC=C3c4ccccc4CCC3C2/C=N\Nc2ccc([N+](=O)[O-])cc2[N+](=O)[O-])c([N+](=O)[O-])c1 (stereo not drawn)
4. CC1CC2(CCC1OCc1ccccc1)OCCO2 (stereo not drawn)
5. Cc1ccc(CN(C)C)c(C(O)c2ccccc2)c1 (stereo not drawn)
6. CCCCCCC1OCC(CC)(CC)CO1

Reply text:
9.2% (inactive)
-4.65% (inactive)
0.75% (inactive)
0.25% (inactive)
14.9% (inactive)
11.8% (inactive)

---

Test: NCI Yeast Anticancer Drug Screen. Data for the mec2-1 strain (AID 157)
Conditions: S. cerevisiae mec2-1 strain, at 50.0 µM, stronger effect = higher value
Experimental: Growth inhibition of yeast strains with defined genetic alterations is measured as a screen for potential anti-cancer activity. Selected strains with alterations in DNA damage repair or cell cycle control were exposed to compounds and growth inhibition was measured relative to vehicle treated controls. The strain used in this assay is mec2-1
This is part of a sample that, as a whole, favours compounds with a hit. Of some 79,000 tested, about 15% had one in any assay.
reported_endpoint: growth inhibition (%)
Numbers only, in %.

Please review the following examples before continuing.
>>> print(df.to_string())
                              compound  reading
0     Cc1cc(C)c2c(c1)C(=O)c1ccccc1C2=O     47.1
1  O=[N+]([O-])c1ccc(Oc2ccc(Cl)cc2)cc1    -11.8

Provide growth inhibition for all items below, preserving their order.
1. CCOP(=O)(CCCCCCP(=O)(OCC)OCC)OCC
2. N#C/C(=C\c1cccc(Br)c1)c1nc2ccccc2c(=O)[nH]1

Reply text:
18.4
4.4

Provide growth inhibition for all items below, preserving their order.
1. CC(C)(C)c1ccn[nH]1.CC(C)(C)c1ccn[nH]1.[Cl-].[Cl-].[O]=[V][O-]
2. O=C(Nc1cccc([N+](=O)[O-])c1)C1C(=O)N(c2cccc([N+](=O)[O-])c2)C(=O)/C1=N/O (stereo unspecified)
3. O=C(O)COc1cccc([N+](=O)[O-])c1
4. CCCCCCC1CCCCC1
5. c1cc(-c2nnc(-c3ccncc3)s2)ccn1
6. CC1(C)OC2OC(C3CC3)C(OCc3ccccc3)C2O1 (stereo unspecified)
7. CCOC(=O)C(CCCBr)(C(=O)OCC)N1C(=O)c2ccccc2C1=O

Reply text:
-12.4
-7.4
-10.3
-41.7
-1.35
-1.05
-13.3

Provide growth inhibition for all items below, preserving their order.
1. COC(=O)c1ccccc1-n1c(-c2ccc([N+](=O)[O-])cc2)csc1=NC(=O)c1cccc([N+](=O)[O-])c1
2. O=C(Nc1ccc(Br)cc1)c1ccccc1
3. NC(Cc1ccc(B(O)O)cc1)C(=O)O (stereo unspecified)
4. CCCCCCCC(=O)NNCc1ccccc1
5. CC(CCl)CC#N (stereo unspecified)
6. [Cl][Pt+2][Cl].[NH-]CC1(C[NH-])CCC1
7. C/C(=N/N(C)c1ccccc1)C(C)C

Reply text:
1: -2.15; 2: 20.9; 3: -53.6; 4: 33.2; 5: -19.1; 6: 1.5; 7: -6.75
